Just for reference, PubChem BioAssay AID2060498 is where these values come from.

Tested on: 171881-019-R-J1-PDC tumor spheroids, viability;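 note: spheroids exposed to compounds for 7 days; 100% = DMSO vehicle control viability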
Experiment: Anticancer human tumor 171881-019-R-J1-PDC patient-derived invasive breast carcinoma cell line growth inhibition [GQUAD]
Settings: second compound 0.316 µM; first compound 0.0316 µM; stronger effect = lower value; spheroids with HUVEC and MSC
The molecules listed here are annotated with their viability, T/C.

// known answers, use as guide
| molecule | reading |
| --- | --- |
| C=CCn1c(=O)c2cnc(Nc3ccc(N4CCN(C)CC4)cc3)nc2n1-c1cccc(C(C)(C)O)n1 + Cc1cnc(CNC(=O)c2c(=O)c3ccc(N4CCCN(C)CC4)nc3n3c2sc2ccccc23)cn1 | 72.1% |
| COc1ncnc(C2CC2)c1-c1ncc2cnn(Cc3ccc(-c4nc(C(F)(F)F)cn4C(C)C)cc3)c2n1 + Cc1cnc(CNC(=O)c2c(=O)c3ccc(N4CCCN(C)CC4)nc3n3c2sc2ccccc23)cn1 | 72.1% |
| COc1cc(C2c3cc4c(cc3C(OC3OC5COC(C)OC5C(O)C3O)C3COC(=O)C23)OCO4)cc(OC)c1O (configuration not stated) + Cc1[nH]c2ccc(F)cc2c1-c1nc2c3cccnc3c3ncccc3c2[nH]1 | 98.7% |
| CCCS(=O)(=O)Nc1ccc(F)c(C(=O)c2c[nH]c3ncc(-c4ccc(Cl)cc4)cc23)c1F + Cc1[nH]c2ccc(F)cc2c1-c1nc2c3cccnc3c3ncccc3c2[nH]1 | 90.2% |
| CC1COCCN1c1cc(-c2ccnn2C)c2ccnc(-c3ccn[nH]3)c2n1 (configuration not stated) + Cc1[nH]c2ccc(F)cc2c1-c1nc2c3cccnc3c3ncccc3c2[nH]1 | 74% |

Ask: I am curious: what viability, T/C value has been reported for Nc1ccn(C2OC(CO)C(O)C2(F)F)c(=O)n1 (configuration not stated) + Cc1cnc(CNC(=O)c2c(=O)c3ccc(N4CCCN(C)CC4)nc3n3c2sc2ccccc23)cn1 ?
Result: 31.5%

Ask: I am curious: what viability, T/C value has been reported for CCCS(=O)(=O)Nc1ccc(F)c(C(=O)c2c[nH]c3ncc(-c4ccc(Cl)cc4)cc23)c1F + CN(C)c1ccc(Nc2c3ccc(NC(=O)CCN4CCCC4)cc3nc3cc(NC(=O)CCN4CCCC4)ccc23)cc1 ?
Result: 43.8%
